assay: NCI Yeast Anticancer Drug Screen. Data for the wt1 strain (AID 149);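 note: 0% = growth of vehicle-treated wt1 cultures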; details: S. cerevisiae wt1 strain (SPY 50644) growth inhibition; at 100.0 µM; hits give high values
About 79,000 compounds went through this panel and 15% of them were active in at least one assay; those are over-represented in the sample as a whole.
valueType: growth inhibition (%)
Numeric only. Scale: %

Problem: Which growth inhibition value belongs to Nc1cccc(-c2cc[cH-]c2)c1.[Fe+2].c1cc[cH-]c1 ?
Solution: 50

Problem: Now the compound CCC[CH2][Ge]([CH2]CCC)([CH2]CCC)[O]C(=O)C(O)c1ccccc1 (centres undefined)
Solution: 99

Problem: And then NC(=O)NC1C(c2ccccc2)=C1c1ccccc1 , what is it?
Solution: 27

Problem: Please answer likewise for CCO/C=C1\SC(=S)N(c2ccc(OCC)cc2)C1=O
Solution: -33

Values were extracted from PubChem BioAssay (NCI).
